Parameter: melting point. Scope: all listed entries.

molecule | testResult
OC(CCCCCOc1ccccc1)c1cccc(OCc2ccc3ccccc3n2)c1 (stereo not given) | 83 to 84.5 °C

Now turn to the next molecule.
Query: Quick check: melting point of `CC=CN(C=CC)c1ccc2[nH]c3cnc(-c4nc(CC)no4)cc3c2c1` ?
Reply: 151 to 156 °C

---

parameter: melting point

compound | melting point
CC(c1c[nH]cn1)c1cccc2c1OC(C)(C)OC2 (stereo not given) | 118 °C

Query: Param item = CC(OCc1ccc(-c2ccccc2)cc1)C(=O)NO (stereo not given) ; retrieve measured melting point.
Reply: 120 to 123 °C

Query: Also check `CC(C)(C)c1cc(-c2c(NC(=O)Nc3ccc(F)cc3F)c(=O)oc3ccc(Cl)cc23)cc(C(C)(C)C)c1O`
Reply: 244 to 246 °C

Query: Next entry: `COC(=O)c1cc(N)nc(-c2ccc(Cl)c(F)c2F)n1`
Reply: 192 to 195 °C

Query: Record: `CCN(CC)C(=O)c1c(O)c(=O)cc(C)n1C`
Reply: 128 to 130 °C

---

Non-standard residues stand in square brackets, D forms with d. Residues, ends and D or L forms follow the SMILES beside them. *: point of attachment. Tos = Cc1ccc(S(=O)(=O)*)cc1; OBn = c1ccc(CO*)cc1; Sar = CNCC(=O)O
// values below are reported melting point

compound | testResult
O=C(O)c1ccc(-c2nc(-c3ccc(C(F)(F)F)cc3)co2)cc1 | 258 to 259 °C
C#CCOc1cccc(-c2nc3cnncc3[nH]2)c1OC | 224 °C
CCOC(=O)CCC(=O)c1ccc2c(c1)CCC2 | 51 to 52 °C
O=C(O)CCCCCCCCCCn1nnnc1S | 95 to 98 °C
COC(=O)c1ccc([N+](=O)[O-])c(OCCO)c1 | 97 to 98 °C
COc1ccc(NC(=O)CN2CCN(c3cccc(C(F)(F)F)c3)CC2)c([N+](=O)[O-])c1 | 98 to 100 °C
O=C(CCc1nc(CCl)no1)c1ccc(-c2ccccc2)cc1 | 153 to 154 °C
CC(=O)OC1CSC(Oc2cncc(-c3ccc(C#N)nc3)c2)C(OC(C)=O)C1OC(C)=O (stereo not given) | 142 to 151 °C

Query: For `CC(=O)C(=NNc1cccc(C)c1)Sc1ccc(Cl)cc1` , what is its reported melting point?
Reply: 112 to 114 °C

Query: Now consider `CC(C)Cn1c(CCCCNC(=O)Nc2ccccc2)nc2c(N)nc3ccccc3c21` and answer again.
Reply: 113 to 115 °C

Query: Next: `COc1ccc(-c2nn(CC3CC3)c(=O)c(C(N)=O)c2-c2ccc(OC)cc2)cc1`
Reply: 174 to 175 °C

Query: Repeat for the following compound: Nc1c(F)c(N2CCC(c3ccncc3)C2)c(F)c2c1c(=O)c(C(=O)O)cn2C1CC1 (stereo not given)
Reply: 236 to 238 °C

Query: Next record, please: CCCCCC1CCC(c2ccc(-c3cc(F)c(C(F)(F)Oc4cc(F)c(C(F)(F)F)c(F)c4)c(F)c3)c(F)c2)OC1 (stereo not given)
Reply: 75 °C

Query: Also `CCOC(=O)Cn1c(-c2ccc([N+](=O)[O-])cc2)nc2cccnc21` ?
Reply: 192 to 194 °C

Query: Check Cc1ccc(S(=O)(=O)N(C)CC(=O)N[C@@H](Cc2ccccc2)C(=O)OCc2ccccc2)cc1 (Tos-[Sar]-Phe-OBn) too.
Reply: 80 to 82 °C

Query: And then `CS(=O)(=O)Nc1cc([C@@H](O)CNC2CCN(c3ccc(NC(=O)c4ccc5c(c4)OCO5)cc3)CC2)ccc1O` , what is it?
Reply: 104 to 113 °C

Query: Can you handle `CCOC(=O)NS(=O)(=O)c1cc(C(C)=O)ccc1Cl` next?
Reply: 106 °C

Query: Try `COc1cc2c(C)csc2c(Cl)c1Cl` next.
Reply: 122 to 124 °C

Query: Input `Cc1c(Cl)nc(NC=O)nc1Cl`
Reply: 123 to 124 °C

Query: One more compound: `COc1cc2ncc(C#N)c(Nc3cccc(C(N)=O)c3)c2cc1OC`
Reply: 253 to 255 °C
